Where do the numbers come from? From a melting point compilation (Tetko et al.; mined from patent text by program, amines drawn as free bases though some values may be those of a salt).

The compounds listed here are annotated with their melting point.
measuredProperty: melting point

compound	measuredProperty	reading
O=C1Nc2ccccc2CCC1Cl (stereo unspecified)	melting point	163 to 167 °C
Cc1ccc(N2CCN(Cc3ccc4c(c3)NC(=O)CO4)CC2)cc1C	melting point	148 to 153 °C
Cc1cccc2cc3c(=O)n(CCc4cn(C(=O)NCCN(C)C)c5ccccc45)cc(C(=O)NCCN(C)C)c3nc12	melting point	182 to 185 °C
O=[N+]([O-])c1ccc(OCCCO)cc1CS(=O)(=O)c1cccc2ccccc12	melting point	134 to 135 °C
CCOC=C(C=O)c1ccc(Br)cc1	melting point	152 to 156 °C
CS(=O)(=O)N1CCN([C@@H](CNC(=O)c2ccc(OCc3ccc(C(F)(F)F)cc3)cc2)C(=O)NO)CC1	melting point	192 °C
CC(C)(C)C1=NN(c2ccc(C(=O)O)cc2)C(c2cccc(F)c2)C1 (stereo unspecified)	melting point	218 °C
CC(C)(C)OC(=O)NCCc1ccc(OCCC2Oc3cc([N+](=O)[O-])ccc3N(Cc3cccc(Cl)c3)C2=O)cc1 (stereo unspecified)	melting point	82 to 85 °C
COCOc1ccc(Cl)cc1-c1cc(-c2cccc([N+](=O)[O-])c2)c(C#N)c(NC(=O)c2ccccc2)n1	melting point	205 to 206 °C
CCC=C(NC(=O)C1CC1(C)C)C(=O)O (stereo unspecified)	melting point	154 to 156 °C
CC(C)(C)COC(=O)c1cc(Cl)c(F)c(Cl)c1	melting point	96 to 98 °C
O=C1CSCC(=O)NCCNCCN1	melting point	206 to 208 °C
COc1ccc2cccc(C=O)c2c1	melting point	61 to 63 °C
CN1C(=O)C(NC(=O)CCC2CCCCC2)N=C(c2ccccc2)c2cnccc21 (stereo unspecified)	melting point	170 to 173 °C
CSc1ncc(S(=O)(=O)NC(=O)NC(C)C)c(Nc2cccc(C)c2)n1	melting point	160 °C
CC(C)(C)c1ccc(/C=C/C(=O)Nc2ccc3nccnc3c2)cc1	melting point	229 to 230 °C
Cc1cccc(CNc2ncnc3nc[nH]c23)c1O	melting point	276 to 277 °C
Fc1nccn1C(c1ccccc1)(c1ccccc1)c1ccccc1	melting point	182 to 185 °C
CNC(=O)N(OC)c1ccccc1COc1ccc2c(c1)OCC2=NOC	melting point	109 to 112 °C
Cc1cccc(Nc2ncnc3cc(NCCCN(C)C)c(N)cc23)c1	melting point	60 to 66 °C
CN(C)C=CC(=O)c1ccc(Cl)cc1	melting point	78.5 to 80.5 °C
O=S1(=O)N=CN(C2CCCCC2)c2cc(Cl)c(Cl)cc21	melting point	219 to 222 °C
Cn1cc(C(=O)c2cnc[nH]2)cc1C(=O)c1ccc(Cl)cc1	melting point	198 to 200 °C
COC1(c2cc(F)cc(Sc3cnc4c(c3)OCC(=O)N4C)c2)CCOCC1	melting point	127 to 128 °C
COc1ccc(CCNC(=O)CCC2(c3ccc(OC)c(OC)c3)SCCCS2)cc1OC	melting point	135 to 136 °C
Clc1ccc2nc(CN3CCN(c4ccc(Cl)c(Cl)c4)CC3)cn2c1	melting point	122 to 124 °C
CCc1cc(-c2ccc(F)cc2)c(O)cc1OCCCOc1cccc(Oc2ccccc2C(=O)O)c1CC(C)C	melting point	48 to 49 °C
O=C1CNN(Cc2ccc(Cl)cc2Cl)C(=O)N1	melting point	167 °C
CCCCCCCCCCCC(=O)CC(=O)OC	melting point	29 °C
COC(=O)c1ccc(OC(C)=O)c(-n2cccc2)c1	melting point	49 to 51 °C
CN(C)C(=O)OCCn1nc(-c2cc(C(C)(C)C)c(O)c(C(C)(C)C)c2)c2cccnc21	melting point	99 to 101 °C
c1ccc(-c2cnc3ccccc3n2)cc1	melting point	77 °C
NNc1ncccc1Br	melting point	146 to 148 °C
CC(C)(C)C(=O)CC(=O)c1ccccc1	melting point	43 to 45 °C
COc1cc(CC(=O)NCCCc2ccc(C)c(C)c2)ccc1OCCNCCO	melting point	76 to 79 °C
CN(CCc1c[nH]c2ccc(CNS(C)(=O)=O)cc12)C(=O)OCc1ccccc1	melting point	118 to 120 °C
CC1=C(C(=O)OC(C)C)C(c2cccc([N+](=O)[O-])c2)c2c(nc(N3CCOCC3)nc2N2CCOCC2)N1 (stereo unspecified)	melting point	229 °C
Cn1ncnc1-c1ccc(C(=O)C(=O)N2Cc3cccn3Cc3ccccc32)c(Cl)c1	melting point	141 to 143 °C
CN1CCN(CCCNc2ncc3cc(-c4c(Cl)cccc4Cl)c(NC(=O)NCc4ccccc4)nc3n2)CC1	melting point	144 to 148 °C
CC(=O)Nc1ccc2c(c1)NC(=O)CC2(C)C	melting point	273 to 278 °C
COC(=O)c1cc2c([N+](=O)[O-])csc2nc1C1=NC(C)(C(C)C)C(=O)N1 (stereo unspecified)	melting point	201 to 202 °C
